Organism: Rattus norvegicus
Assay text: Open TG-GATES - Regimen: Daily Repeat
Assay type: toxicity, organism-based, Sprague-Dawley
Parameters: regimen Daily Repeat, gender Male, age 6 weeks
Experimental conditions: in vivo, po, 300 mg/kg, 72 h, tissue Plasma, route gavage, dose level Middle, time 3 day
BUN overview
Readout: BUN (mg/dL)

COc1ccc2[nH]c([S+]([O-])Cc3ncc(C)c(OC)c3C)nc2c1 (stereo not given) [OMEPRAZOLE] ... 14.8
CCOc1ccc(NC(=O)CC(C)O)cc1 (stereo not given) [BUCETIN] ... 15.2
CCOC(=O)CCC(=O)O[C@H]1[C@H](O[C@@H]2[C@@H](C)[C@H](O[C@H]3C[C@@](C)(OC)[C@@H](O)[C@H](C)O3)[C@@H](C)C(=O)O[C@H](CC)[C@@](C)(O)[C@H](O)[C@@H](C)C(=O)[C@H](C)C[C@@]2(C)O)O[C@H](C)C[C@@H]1N(C)C [ERYTHROMYCIN ETHYLSUCCINATE] ... 18.6
NC(N)=Nc1nc(CSCCC(N)=NS(N)(=O)=O)cs1 [FAMOTIDINE] ... 14.4
COC1=CC(=O)C[C@@H](C)[C@]12Oc1c(Cl)c(OC)cc(OC)c1C2=O [GRISEOFULVIN] ... 13.8

* * *

Species: Rattus norvegicus
Assay text: Open TG-GATES - Regimen: Single
Type: toxicity, organism-based, Sprague-Dawley
Parameters: regimen Single, gender Male, age 6 weeks
Experimental conditions: in vivo, po, 100 mg/kg, 6 h, tissue Plasma, route gavage, dose level High
Readout: IP (mg/dL)

CC1=C(/C=C/C(C)=C/C=C/C(C)=C/CO)C(C)(C)CCC1 ... 10.6
CN(C)CCCN1c2ccccc2CCc2ccc(Cl)cc21 ... 9.7
CN(C)CCN(Cc1cccs1)c1ccccn1 ... 9.4
CN(C)CCCN1c2ccccc2CCc2ccccc21 ... 9.9

* * *

Species on record: Rattus norvegicus
Assay text: Open TG-GATES - Regimen: Single
Format: toxicity, organism-based, Sprague-Dawley
Set-up: regimen Single, gender Male, age 6 weeks
Experimental conditions: in vivo, po, 300 mg/kg, 3 h, tissue Plasma, route gavage, dose level Middle
AST overview
Readout: AST (IU/L)

COc1ccc2[nH]c([S+]([O-])Cc3ncc(C)c(OC)c3C)nc2c1 (centres undefined) ... 67.2
COC1=CC(=O)C[C@@H](C)[C@]12Oc1c(Cl)c(OC)cc(OC)c1C2=O ... 69.2
NC(N)=Nc1nc(CSCCC(N)=NS(N)(=O)=O)cs1 ... 66.4
CCOC(=O)CCC(=O)O[C@H]1[C@H](O[C@@H]2[C@@H](C)[C@H](O[C@H]3C[C@@](C)(OC)[C@@H](O)[C@H](C)O3)[C@@H](C)C(=O)O[C@H](CC)[C@@](C)(O)[C@H](O)[C@@H](C)C(=O)[C@H](C)C[C@@]2(C)O)O[C@H](C)C[C@@H]1N(C)C [ERYTHROMYCIN ETHYLSUCCINATE] ... 74.2

* * *

Species: Rattus norvegicus
Assay text: Open TG-GATES - Regimen: Daily Repeat
Type: toxicity, organism-based, Sprague-Dawley
Parameters: regimen Daily Repeat, gender Male, age 6 weeks
Experimental conditions: in vivo, po, 0 mg/kg, […], tissue Plasma, route gavage, dose level Control, time 7 day
Values of ALP strictly less than 1000 IU/L map to 1.0, and values of at least 1000 IU/L map to 0.0.

CCOc1ccc(NC(=O)CC(C)O)cc1 (stereo unspecified) [BUCETIN] ... 0.0
O=C(CCCN1CCC(O)(c2ccc(Cl)cc2)CC1)c1ccc(F)cc1 [HALOPERIDOL] ... 1.0
CCOC(=O)CCC(=O)O[C@H]1[C@H](O[C@@H]2[C@@H](C)[C@H](O[C@H]3C[C@@](C)(OC)[C@@H](O)[C@H](C)O3)[C@@H](C)C(=O)O[C@H](CC)[C@@](C)(O)[C@H](O)[C@@H](C)C(=O)[C@H](C)C[C@@]2(C)O)O[C@H](C)C[C@@H]1N(C)C [ERYTHROMYCIN ETHYLSUCCINATE] ... 0.0
CN1C(=O)CN=C(c2ccccc2)c2cc(Cl)ccc21 [DIAZEPAM] ... 1.0
CC1=C(/C=C/C(C)=C/C=C/C(C)=C/CO)C(C)(C)CCC1 [RETINOL] ... 0.0
CCCNC(=O)NS(=O)(=O)c1ccc(Cl)cc1 [CHLORPROPAMIDE] ... 0.0
COc1ccc2[nH]c([S+]([O-])Cc3ncc(C)c(OC)c3C)nc2c1 (stereo unspecified) [OMEPRAZOLE] ... 1.0
COC1=CC(=O)C[C@@H](C)[C@]12Oc1c(Cl)c(OC)cc(OC)c1C2=O [GRISEOFULVIN] ... 1.0
NNC(=O)c1ccncc1 [ISONIAZID] ... 1.0
NC(N)=Nc1nc(CSCCC(N)=NS(N)(=O)=O)cs1 [FAMOTIDINE] ... 0.0
CN(C)CCN(Cc1cccs1)c1ccccn1 ... 0.0

* * *

Species: Rattus norvegicus
Assay text: Open TG-GATES - Regimen: Single
Assay type: toxicity, organism-based, Sprague-Dawley
Parameters: regimen Single, gender Male, age 6 weeks
Experimental conditions: in vivo, po, 0 mg/kg, 6 h, tissue Plasma, route gavage, dose level Control
gamma-GTP overview
Readout: gamma-GTP (IU/L)

CCCNC(=O)NS(=O)(=O)c1ccc(Cl)cc1 [CHLORPROPAMIDE] ... 1
CCOc1ccc(NC(=O)CC(C)O)cc1 (stereo not given) ... 1.4
CC(C)OC(=O)C(C)(C)Oc1ccc(C(=O)c2ccc(Cl)cc2)cc1 [FENOFIBRATE] ... 1
COc1cc2c(c(OC)c1OC)-c1ccc(OC)c(=O)cc1[C@@H](NC(C)=O)CC2 ... 1.6
CN1C(=O)CN=C(c2ccccc2)c2cc(Cl)ccc21 ... 1.2
CC1=C(/C=C/C(C)=C/C=C/C(C)=C/CO)C(C)(C)CCC1 ... 1.2
Cc1ccc(C)c(OCCCC(C)(C)C(=O)O)c1 ... 1.4
C[C@@H]1C[C@H]2[C@@H]3CCC4=CC(=O)C=C[C@]4(C)[C@@]3(F)[C@@H](O)C[C@]2(C)[C@@]1(O)C(=O)CO ... 0
O=C(CCCN1CCC(O)(c2ccc(Cl)cc2)CC1)c1ccc(F)cc1 ... 1.4
CC/C(=C(\c1ccccc1)c1ccc(OCCN(C)C)cc1)c1ccccc1 ... 1

* * *

Organism: Rattus norvegicus
Assay text: Open TG-GATES - Regimen: Single
Format: toxicity, organism-based, Sprague-Dawley
Parameters: regimen Single, gender Male, age 6 weeks
Experimental conditions: in vivo, po, 30 mg/kg, 24 h, tissue Plasma, route gavage, dose level Middle
TC overview
Readout: TC (mg/dL)

CN(C)CCN(Cc1cccs1)c1ccccn1 ... 73.4
CN(C)CCCN1c2ccccc2CCc2ccccc21 ... 85.2
CC1=C(/C=C/C(C)=C/C=C/C(C)=C/CO)C(C)(C)CCC1 ... 74.2
CN(C)CCCN1c2ccccc2CCc2ccc(Cl)cc21 ... 80.2

* * *

gamma-GTP overview
Species: Rattus norvegicus
Assay text: Open TG-GATES - Regimen: Daily Repeat
Type: toxicity, organism-based, Sprague-Dawley
Parameters: regimen Daily Repeat, gender Male, age 6 weeks
Experimental conditions: in vivo, po, 100 mg/kg, […], tissue Plasma, route gavage, dose level Low, time 14 day
Readout: gamma-GTP (IU/L)

COC1=CC(=O)C[C@@H](C)[C@]12Oc1c(Cl)c(OC)cc(OC)c1C2=O ... 1
COc1ccc2[nH]c([S+]([O-])Cc3ncc(C)c(OC)c3C)nc2c1 (stereo not given) ... 1
CCOC(=O)CCC(=O)O[C@H]1[C@H](O[C@@H]2[C@@H](C)[C@H](O[C@H]3C[C@@](C)(OC)[C@@H](O)[C@H](C)O3)[C@@H](C)C(=O)O[C@H](CC)[C@@](C)(O)[C@H](O)[C@@H](C)C(=O)[C@H](C)C[C@@]2(C)O)O[C@H](C)C[C@@H]1N(C)C [ERYTHROMYCIN ETHYLSUCCINATE] ... 2.2
CCOc1ccc(NC(=O)CC(C)O)cc1 (stereo not given) ... 1.2
NC(N)=Nc1nc(CSCCC(N)=NS(N)(=O)=O)cs1 ... 1.6

* * *

Organism: Rattus norvegicus
Assay text: Open TG-GATES - Regimen: Single
Type: toxicity, organism-based, Sprague-Dawley
Parameters: regimen Single, gender Male, age 6 weeks
Experimental conditions: in vivo, po, 0 mg/kg, 9 h, tissue Plasma, route gavage, dose level Control
Readout: PL (mg/dL)

O=C(CCCN1CCC(O)(c2ccc(Cl)cc2)CC1)c1ccc(F)cc1 ... 134.4
CN(C)CCN(Cc1cccs1)c1ccccn1 ... 133.2
COC1=CC(=O)C[C@@H](C)[C@]12Oc1c(Cl)c(OC)cc(OC)c1C2=O ... 148.2
CCCNC(=O)NS(=O)(=O)c1ccc(Cl)cc1 [CHLORPROPAMIDE] ... 136.6
CN1C(=O)CN=C(c2ccccc2)c2cc(Cl)ccc21 ... 130.4
CN(C)CCCN1c2ccccc2CCc2ccccc21 ... 136
CN(C)CCCN1c2ccccc2CCc2ccc(Cl)cc21 ... 139.2
C[C@@H]1C[C@H]2[C@@H]3CCC4=CC(=O)C=C[C@]4(C)[C@@]3(F)[C@@H](O)C[C@]2(C)[C@@]1(O)C(=O)CO ... 141.8
COc1ccc2[nH]c([S+]([O-])Cc3ncc(C)c(OC)c3C)nc2c1 (configuration not stated) ... 122.2
CC(C)OC(=O)C(C)(C)Oc1ccc(C(=O)c2ccc(Cl)cc2)cc1 [FENOFIBRATE] ... 145.8
CCOc1ccc(NC(=O)CC(C)O)cc1 (configuration not stated) ... 135
NNC(=O)c1ccncc1 ... 137.6
CCOC(=O)CCC(=O)O[C@H]1[C@H](O[C@@H]2[C@@H](C)[C@H](O[C@H]3C[C@@](C)(OC)[C@@H](O)[C@H](C)O3)[C@@H](C)C(=O)O[C@H](CC)[C@@](C)(O)[C@H](O)[C@@H](C)C(=O)[C@H](C)C[C@@]2(C)O)O[C@H](C)C[C@@H]1N(C)C [ERYTHROMYCIN ETHYLSUCCINATE] ... 124.4
Cc1ccc(C)c(OCCCC(C)(C)C(=O)O)c1 ... 150.2
CC1=C(/C=C/C(C)=C/C=C/C(C)=C/CO)C(C)(C)CCC1 ... 131.2
COc1cc2c(c(OC)c1OC)-c1ccc(OC)c(=O)cc1[C@@H](NC(C)=O)CC2 ... 134.4
NC(N)=Nc1nc(CSCCC(N)=NS(N)(=O)=O)cs1 ... 133.8
